- experimental system: TJP2_1, Q9UDY2
- Sequence (Q9UDY2 24-128): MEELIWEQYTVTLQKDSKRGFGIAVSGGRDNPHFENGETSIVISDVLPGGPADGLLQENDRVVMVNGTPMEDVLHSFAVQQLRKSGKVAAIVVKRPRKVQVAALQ
- test summary: holdup assay
- Set-up: key: below the threshold = too weak to quantify, mostly under pKd 3.1 to 4
- experimental parameters: plain residues with an end cap or a label only (N-terminal biotin on a linker: ado-ado)
measured endpoint: pKd
A bare number is all that is needed in reply.

So, HLSTRQGTCV [ATRNL1, Q5VV63] ? Its pKd was 4.35

// pKd lookup, binder = RGKNRRQSIF [CDK18, Q07002] , result: 3.47

The measured pKd associated with PDSYHRRDFW [U2AF2, P26368] reads 3.56

// pKd value for THREVKFTSL [CD46, P15529] : 3.73

Origin of the recorded values: paper PMC9482650
